target: T1, RSV F subtype A, furin-cleaved ectodomain stabilized in the prefusion conformation (DS-Cav1) (Respiratory syncytial virus subtype A, UniProt P03420 26-524); experiment: BLI, IgG on AHQ sensor, 100 nM antigen
T1 construct: extracellular domain; Trimeric soluble antigen; also called Prefusion subtype A
Could you please report measured Kd for the items listed next?
Numbers only, in nM.

ADI-18890 (antibody, V domains shown, full-length IgG from yeast) VH: QVQLVQSGAEVKRPGSSVKVSCKASGGTFRGYHISWLRQAPGQGLEWLGGITHLFGTVSYAPKFQGRVTITADASTGTLYMVLNSLKPEDTAIYYCARDAYEVWTGSYLPPFDYWGQGTLVTVSS VL: ETTLTQSPGTLSLSPGERATLSCRASQTVTSNYLAWYQQKPGQAPRLLIYDALTRATGIPDRFSGSGSGTDFTLTISRLEPEDFALYYCQQYGSSFLTFGGGTKVDIK
0.489
ADI-18916 (antibody, V domains shown, full-length IgG from yeast; also called Antibody Number 270; Ab # 270) VH: QVQLVQSGPEVKKPGESLTISCKGSGYDFSNNWIGWVRQMPGKGLEWMGIIYPGDSDTRYSPSFQGQVTLSVDKSISTAYLQWRSLKASDSGIYYCARQIGGLVCSSESCYFYGMDVWGQGTTVTVSS VL: DIRVTQSPSSLSASVGGRVTITCRASQSISNYLNWYQHKPGKAPELLIYGASSLQSGVPSRFSGSGSGTDFTLTISSLQPEDFATYYCQQSDTTPFTFGQGTKLEIK
0.585

Now look at this one.
Looking up ADI-18875 (antibody, V domains shown, full-length IgG from yeast; also called Antibody Number 232; Ab # 232) VH: QVQLQQWGAGLLKPSETLSLTCAVYGGSFSGYSWSWIRQTPGKGLEWIGEINHRGSTNYNPSLKSRVTMSVDTSQNQISLRVTSVTAADTAVYFCAGTNYGEVNTSNQYFFGMDVWGQGTTVTVSS VL: DIQVTQSPSSLSASVGDRVTITCRASQSIGTYLNWYQQKPGKPPKLLIYAASNLESGVPSSFSGSGSGTHFTLTISSLQPEHFATYYCQQSYSTPLTFGGGTKVEIK , I found its Kd recorded as 0.736

The reported numbers originate from patent US20200223906A1.
